experimentSummary: Toxicity in BALB/c mouse assessed as mortality rate at 40 mg/kg, ip measured for 7 days
Format: organism-based
assayContext: in vivo, time 7 day, read-out: Activity
reportedEndpoint: mortality at 168 h (%)
Express it in %; write the number only.

## Task Please give the measured mortality at 168 h for this compound: CC(C)=CCc1c(OCCCCSc2cc[n+](CC(=O)N(CC(C)C)CC(C)C)cc2)ccc2ccc(=O)oc12.[Br-]
## Result 83.3

----------
Each entry below lists one item and its recorded MIC value.
Test system: Staphylococcus aureus
experimentSummary: Antibacterial activity against methicillin-resistant Staphylococcus aureus M17 incubated for 16 to 20 hrs by broth microdilution method
Assay type: functional
assayContext: time 16-20 hrs
Express it in µg/mL; write the number only.

Sample records with MIC:
CCCCNC(=O)C[n+]1ccc(SCCCCOc2ccc3ccc(=O)oc3c2CC=C(C)C)cc1.[Br-] | 4
CCCN(CCC)C(=O)C[n+]1ccc(SCCCOc2ccc3ccc(=O)oc3c2CC=C(C)C)cc1.[Br-] | 8
CCCCN(CCCC)C(=O)C[n+]1ccc(SCCCCCOc2ccc3ccc(=O)oc3c2CC=C(C)C)cc1.[Br-] | 2
CC(C)=CCc1c(OCCCCSc2cc[n+](CC(=O)N(CC(C)C)CC(C)C)cc2)ccc2ccc(=O)oc12.[Br-] | 0.5
CCCNC(=O)C[n+]1ccc(SCCCOc2ccc3ccc(=O)oc3c2CC=C(C)C)cc1.[Br-] | 16

## Task Please give the measured MIC for this compound: CC(C)=CCc1c(OCCCSc2cc[n+](CC(=O)N(C(C)C)C(C)C)cc2)ccc2ccc(=O)oc12.[Br-]
## Result 4

## Task Entry CC(C)=CCc1c(OCCCSc2cc[n+](CC(=O)N(CC(C)C)CC(C)C)cc2)ccc2ccc(=O)oc12.[Br-] please
## Result 4

## Task Entry CCCNC(=O)C[n+]1ccc(SCCCCOc2ccc3ccc(=O)oc3c2CC=C(C)C)cc1.[Br-] please
## Result 8

## Task Entry CC(C)=CCc1c(OCCCCSc2cc[n+](CC(=O)N3CCOCC3)cc2)ccc2ccc(=O)oc12.[Br-] please
## Result 32

## Task Entry CCCCCNC(=O)C[n+]1ccc(SCCCOc2ccc3ccc(=O)oc3c2CC=C(C)C)cc1.[Br-] please
## Result 2

## Task Entry CC(C)=CCc1c(OCCCCCSc2cc[n+](CC(=O)N(CC(C)C)CC(C)C)cc2)ccc2ccc(=O)oc12.[Br-] please
## Result 2

## Task Entry CC(C)=CCc1c(OCCCCCSc2cc[n+](CC(=O)N3CCOCC3)cc2)ccc2ccc(=O)oc12.[Br-] please
## Result 32

## Task Entry CC(C)=CCc1c(OCCCCSc2cc[n+](CC(=O)N(C)c3ccccc3)cc2)ccc2ccc(=O)oc12.[Br-] please
## Result 16

## Task Entry CCCCCNC(=O)C[n+]1ccc(SCCCCCOc2ccc3ccc(=O)oc3c2CC=C(C)C)cc1.[Br-] please
## Result 0.5
